Data origin, for the record: patent US20220064272A1

molecular target: T1, TauC3 (C-terminally truncated tau fragment ending at aspartate 421 of htau40) (human, UniProt P10636 1-738); test: binding ELISA on coated TauC3, OD650
T1 construct: Generated and purified by Genscript; also called Human TauC3; recombinant TauC3 protein
T1 sequence (P10636 other isoform, or with tags, fused parts or gaps): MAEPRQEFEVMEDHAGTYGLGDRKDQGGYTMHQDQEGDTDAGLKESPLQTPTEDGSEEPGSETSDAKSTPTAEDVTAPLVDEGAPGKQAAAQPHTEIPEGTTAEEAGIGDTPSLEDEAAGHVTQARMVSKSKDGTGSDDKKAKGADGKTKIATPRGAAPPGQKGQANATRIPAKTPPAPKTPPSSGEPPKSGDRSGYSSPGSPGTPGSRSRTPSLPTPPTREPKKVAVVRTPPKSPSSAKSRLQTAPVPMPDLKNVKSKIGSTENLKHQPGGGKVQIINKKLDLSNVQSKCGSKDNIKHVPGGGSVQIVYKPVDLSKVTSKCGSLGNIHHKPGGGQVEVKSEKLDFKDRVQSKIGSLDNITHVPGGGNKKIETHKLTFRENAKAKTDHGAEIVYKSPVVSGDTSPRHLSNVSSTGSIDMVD
Measurement Name: pEC50
As a rule, pEC50 stands for the negative log10 of the concentration, concentration in M.

Some binders with recorded pEC50:
Binder	pEC50
Tau01 HOKG (antibody, V domains shown, human IgG4 kappa (HuG4K)) VH: LVQVVESGGGLVQPGGSLKLSCAASGFTFNTYAMNWVRQASGKGLEWVARIRSKSNNYATYYAASVKGRFTISRDDSKSMAYLQMDSLKTEDTAVYYCVGGGDFWGQGTLVTVSS VL: DIQMTQSPSSLSASVGDRVTITCRASQEISVYLGWYQQKPGKAPKRLIYGAFTLQSGVPSRFSGSRSGTEFTLTISSLQPEDFATYYCLQYVRYPWTFGGGTKVEIK	9.22
Tau01 HOKA (antibody, V domains shown, human IgG4 kappa (HuG4K)) VH: LVQVVESGGGLVQPGGSLKLSCAASGFTFNTYAMNWVRQASGKGLEWVARIRSKSNNYATYYAASVKGRFTISRDDSKSMAYLQMDSLKTEDTAVYYCVGGGDFWGQGTLVTVSS VL: DIQMTQSPSSLSASVGDRVTITCRASQEISVYLGWYQQKPGKAPKRLIYGAFKLQSGVPSRFSGSRSGTEFTLTISSLQPEDFATYYCLQYVRYPWTFGGGTKVEIK	9.41

Attention now shifts to the item below.
Fill blank: measured pEC50 of the binder MoTau01 HuG4K chimeric antibody (antibody, V domains shown, Mouse variable regions with human IgG4 / kappa constant regions (pHuG4, pHuK); also called chimeric Tau01) VH: EVQVVESGGGLVQPKGSLKLSCAASGFTFNTYAMNWVRQAPGKGLEWVARIRSKSNNYATYYADSVKDRFTISRDDSQSMVYLQMNNLKTEDTAMYYCVGGGDFWGQGTALTVSS VL: DIQMTQSPSSLSASLGERVSLTCRASQEISVYLSWFQQKPDGTIKRLIYGAFTLDSGVPKRFSGSRSGSDYSLTISSLESEDFADYYCLQYVRYPWTFGGGTKLEIK is ____.
9.32
